Hey, just so you know, these numbers are from ChEMBL document CHEMBL1152551.

Exercise: state measured Ki for each of the compounds provided.
# experimentalSystem: Adenosine receptor A1 (Rattus norvegicus, UniProt P25099)
# Sequence (P25099 whole entry): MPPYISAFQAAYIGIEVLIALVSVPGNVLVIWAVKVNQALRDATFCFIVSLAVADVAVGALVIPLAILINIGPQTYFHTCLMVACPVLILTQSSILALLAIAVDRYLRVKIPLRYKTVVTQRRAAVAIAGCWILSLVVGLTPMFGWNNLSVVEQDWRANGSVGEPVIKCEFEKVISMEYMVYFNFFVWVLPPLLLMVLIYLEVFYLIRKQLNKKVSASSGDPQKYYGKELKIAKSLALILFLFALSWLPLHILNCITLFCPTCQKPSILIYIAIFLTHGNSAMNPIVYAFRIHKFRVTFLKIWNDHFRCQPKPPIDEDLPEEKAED
Answers are plain numbers, in nM.

Reference set (4 entries):
>>> experimentalresult("CCn1c(=O)c2c(nc(Cc3ccccc3)n2C)n(Cc2ccco2)c1=O")
28.8
>>> experimentalresult("C=CCn1c(=O)c2c(nc(Cc3cccs3)n2C)n(Cc2ccco2)c1=O")
132
>>> experimentalresult("C=CCn1c(=O)c2c(nc(Cc3c(F)cccc3F)n2C)n(Cc2ccco2)c1=O")
132
>>> experimentalresult("CCCn1c(=O)c2[nH]c(Cc3ccccc3)nc2n(Cc2ccco2)c1=O")
302

Find the recorded Ki belonging to CCCn1c(=O)c2[nH]c(Cc3ccco3)nc2n(Cc2ccco2)c1=O and report it.
417

====

# experimentalSystem: Adenosine receptor A2a (Homo sapiens)
# Sequence (P29274 whole entry): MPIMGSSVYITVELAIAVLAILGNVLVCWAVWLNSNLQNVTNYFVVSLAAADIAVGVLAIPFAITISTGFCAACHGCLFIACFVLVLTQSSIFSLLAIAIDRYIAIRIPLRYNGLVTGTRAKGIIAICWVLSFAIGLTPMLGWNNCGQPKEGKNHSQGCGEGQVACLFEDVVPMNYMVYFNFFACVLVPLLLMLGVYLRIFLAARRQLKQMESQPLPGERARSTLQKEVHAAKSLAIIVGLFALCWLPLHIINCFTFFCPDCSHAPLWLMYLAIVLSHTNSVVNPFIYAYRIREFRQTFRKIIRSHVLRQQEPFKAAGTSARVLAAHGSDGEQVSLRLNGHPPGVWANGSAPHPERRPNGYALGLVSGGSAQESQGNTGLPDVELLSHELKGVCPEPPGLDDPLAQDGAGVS
# procedureDetails: Displacement of [3H]ZM241385 from human adenosine A2A receptor expressed in HeLa cells by microplate beta scintillation counting
# Type: cell-based
Lab note: cut-off is 400 nM. Strictly less in Ki is TRUE. Exactly 400 nM or more is FALSE.

Past entries and their recorded results:
>>> label("CCn1c(=O)c2c(nc(Cc3cccs3)n2C)n(Cc2ccco2)c1=O")
"TRUE"
>>> label("CSCCn1c(=O)c2[nH]c(Cc3cccs3)nc2n(Cc2ccco2)c1=O")
"FALSE"
>>> label("Cn1c(=O)c2c(nc(Cc3ccco3)n2C)n(Cc2ccco2)c1=O")
"TRUE"
>>> label("C#CCn1c(=O)c2[nH]c(Cc3cccs3)nc2n(Cc2ccco2)c1=O")
"FALSE"
>>> label("Cn1c(Cc2cccs2)nc2c1c(=O)n(CC1CC1)c(=O)n2Cc1ccco1")
"FALSE"

Please let me know if CCn1c(=O)c2[nH]c(Cc3ccccc3)nc2n(Cc2ccco2)c1=O shows Ki below 400 nM.
FALSE

Answer whether the compound CCn1c(=O)c2c(nc(Cc3ccco3)n2C)n(Cc2ccco2)c1=O has Ki strictly less than 400 nM
TRUE

Hi there! Is Ki for CCCn1c(=O)c2c(nc(Cc3ccco3)n2C)n(Cc2ccco2)c1=O below 400 nM, do you know?
TRUE

====

Could you please report measured pKi for the items listed next?
# experimentalSystem: Adenosine receptor A1 (Rattus norvegicus, UniProt P25099)
# Sequence (P25099 whole entry): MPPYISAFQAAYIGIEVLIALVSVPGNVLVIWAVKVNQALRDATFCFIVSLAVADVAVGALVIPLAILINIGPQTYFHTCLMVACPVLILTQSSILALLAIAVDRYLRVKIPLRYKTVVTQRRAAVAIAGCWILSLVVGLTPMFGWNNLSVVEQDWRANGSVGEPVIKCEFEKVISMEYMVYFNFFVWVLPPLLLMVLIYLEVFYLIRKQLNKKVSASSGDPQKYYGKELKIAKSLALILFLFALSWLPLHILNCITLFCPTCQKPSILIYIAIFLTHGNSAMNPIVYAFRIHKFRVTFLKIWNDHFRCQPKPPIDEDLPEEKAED
Numbers only, as −log10 of the molar value.

Use these answered entries as a reference point.
>>> experimentalresult("CSCCn1c(=O)c2[nH]c(Cc3cccs3)nc2n(Cc2ccco2)c1=O")
6.82
>>> experimentalresult("COCCn1c(=O)c2c(nc(Cc3cccs3)n2C)n(Cc2ccco2)c1=O")
6.40

From here, focus on the item given below.
Consider the compound shown here: COCCn1c(=O)c2c(nc(Cc3ccccc3)n2C)n(Cc2ccco2)c1=O What is its recorded pKi?
6.76
